subject of test: Cytosolic phospholipase A2 (Homo sapiens)
protocol summary: Inhibition of human group 4A cytosolic Ca2+-dependent phospholipase A2 at 0.091 mole fraction by modified Dole assay
quantity: inhibition (%)

INSERT INTO results (compound, reported_result) VALUES
  ('CCCCCCCCCCCCCCC(=O)C(=O)NCCC(=O)OC(C)(C)C', 79),
  ('CCCCCCCCCCCCCCC(=O)C(=O)NCCCCOCC', 62),
  ('CCCCCCCCCCCCCCC(=O)C(=O)NCC(=O)OC(C)(C)C', 80),
  ('CCCCCCCCCCCCCCC(=O)C(=O)N[C@@H](CCCC)CCC(=O)OC', 87),
  ('CC(C)(C)OC(=O)CCNC(=O)C(=O)CCCCCCc1ccccc1', 82);

a = CCCCCCCCCCCCCCC(=O)C(=O)N[C@@H](C)CCC(=O)OC(C)(C)C
b = CCCCCCCCCCCCCCC(=O)C(=O)NCCC(=O)OCC
Enquiry: Larger number for inhibition: a , or b ? Mark your answer with the label of the selected entry.
Return: a
